target: Amyloid-beta precursor protein (Homo sapiens); experiment: Inhibition of self-induced amyloid beta 42 (unknown origin) aggregation at 1 uM incubated for 20 hrs by thioflavin-T fluorescence assay relative to control
measurement.kind: inhibition (%)

structure.smiles: O=C(/C=C/c1ccccc1O)/C=C/c1cccc(O)c1O
inhibition (%): 98
//
structure.smiles: O=C(/C=C/c1cccc(O)c1O)CC(=O)/C=C/c1cccc(O)c1O
inhibition (%): 93
//
structure.smiles: O=C(/C=C/c1ccc(O)cc1)/C=C/c1ccc(O)c(O)c1
inhibition (%): 75
//
structure.smiles: O=C(/C=C/c1cc(O)ccc1O)CC(=O)/C=C/c1cc(O)ccc1O
inhibition (%): 99
//
structure.smiles: O=C(/C=C/c1cc(O)ccc1O)/C=C/c1cccc(O)c1O
inhibition (%): 100
//
structure.smiles: O=C(/C=C/c1ccc(O)c(O)c1)c1cc(O)ccc1O
inhibition (%): 85
//
structure.smiles: O=C(/C=C/c1ccccc1O)CC(=O)c1ccc(O)c(O)c1
inhibition (%): 90
//
structure.smiles: O=C(/C=C/c1cc(O)ccc1O)CC(=O)c1ccc(O)c(O)c1
inhibition (%): 98
//
structure.smiles: O=C(/C=C/c1ccc(O)c(O)c1)/C=C/c1cc(O)ccc1O
inhibition (%): 100
//
structure.smiles: O=C(/C=C/c1ccc(O)c(O)c1)/C=C/c1ccccc1O
inhibition (%): 100
//
structure.smiles: O=C(/C=C/c1cc(O)ccc1O)CC(=O)/C=C/c1cccc(O)c1O
inhibition (%): 100

From: ChEMBL document CHEMBL4387774
